Measured on: T1, GFP-9S library array, motif 4 ND D124L (synthetic construct, D124L)
T1 chain: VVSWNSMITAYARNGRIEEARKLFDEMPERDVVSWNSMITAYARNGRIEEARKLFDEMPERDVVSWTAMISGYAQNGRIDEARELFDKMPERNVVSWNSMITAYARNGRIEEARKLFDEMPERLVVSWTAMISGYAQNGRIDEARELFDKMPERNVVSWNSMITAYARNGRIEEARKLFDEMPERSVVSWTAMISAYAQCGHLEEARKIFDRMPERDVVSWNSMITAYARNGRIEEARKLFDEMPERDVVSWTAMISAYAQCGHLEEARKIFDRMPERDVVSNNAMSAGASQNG
Method notes: high-throughput RNA pulldown from lysate on Ni-NTA beads; HRP: 50 mM Tris pH 8, 150 mM NaCl, 1 mM beta-mercaptoethanol, 50 ug/ml BSA, 3 ug/ml yeast RNA, 0.5% heparin; ITC and FP: Tris pH 8, 200 mM KCl, 5% glycerol; MST: 50 mM Tris pH 8, 200 mM NaCl, 1 mM DTT, BSA, heparin, 0.05% Tween 20
Applied conditions: tags: N-terminal His-eGFP; label: 5' IRDye 800CW
Quantity: Kd
Answer with the figure and its unit, nothing else.

>>> print(df.to_string())
                            binder  test_result
0  AUUAAACGUGA (ssRNA) [IR-rpoA-A]     0.291 µM

# input // query Kd value for entry AUUAUACGUGA (ssRNA) [IR-rpoA-U]
# output 0.0966 µM
